Total Internalized RFU values, listed per item
target desc: endogenously expressed human MSR1 on PMA-treated THP-1 cells (human) (UniProt P21757)
Sequence (P21757 whole entry): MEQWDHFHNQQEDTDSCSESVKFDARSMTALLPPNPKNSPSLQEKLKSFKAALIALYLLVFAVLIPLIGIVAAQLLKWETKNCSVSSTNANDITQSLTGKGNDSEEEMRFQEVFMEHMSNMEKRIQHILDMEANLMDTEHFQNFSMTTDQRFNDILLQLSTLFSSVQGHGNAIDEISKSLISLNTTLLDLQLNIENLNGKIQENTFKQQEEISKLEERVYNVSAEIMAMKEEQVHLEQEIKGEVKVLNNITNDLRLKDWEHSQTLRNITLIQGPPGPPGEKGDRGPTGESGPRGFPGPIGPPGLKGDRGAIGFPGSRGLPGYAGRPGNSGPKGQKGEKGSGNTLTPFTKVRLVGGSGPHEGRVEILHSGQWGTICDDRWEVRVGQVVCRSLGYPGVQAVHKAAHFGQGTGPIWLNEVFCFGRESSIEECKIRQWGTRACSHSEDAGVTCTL
assay protocol: cell-based or functional assay
The figure you give is taken to be in RFU; do not add the unit.

The cases that follow already have their Total Internalized RFU on record.
INSERT INTO measurements (binder, quantity, measured) VALUES
  ('H1H21234N-N297Q (antibody, human IgG1, V domains shown) VH: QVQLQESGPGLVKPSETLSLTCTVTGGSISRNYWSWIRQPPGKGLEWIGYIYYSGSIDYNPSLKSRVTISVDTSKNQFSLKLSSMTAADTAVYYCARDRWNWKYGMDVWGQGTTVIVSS VL: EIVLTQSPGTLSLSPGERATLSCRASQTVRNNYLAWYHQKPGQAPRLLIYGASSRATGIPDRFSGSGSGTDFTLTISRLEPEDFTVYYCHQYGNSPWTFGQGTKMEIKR', 'Total Internalized RFU', 723000),
  ('H1H27739P-N297Q (antibody, human IgG1, V domains shown) VH: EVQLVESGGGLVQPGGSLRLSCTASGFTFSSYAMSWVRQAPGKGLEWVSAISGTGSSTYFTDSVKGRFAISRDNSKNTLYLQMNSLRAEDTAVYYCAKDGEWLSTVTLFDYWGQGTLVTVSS VL: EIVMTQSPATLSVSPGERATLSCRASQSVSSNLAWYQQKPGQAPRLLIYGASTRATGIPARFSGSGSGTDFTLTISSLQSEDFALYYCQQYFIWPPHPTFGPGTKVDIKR', 'Total Internalized RFU', '4.02e+06');

Turning now to a further binder:
Return reported Total Internalized RFU; argument: H1H27729P-N297Q (antibody, human IgG1, V domains shown) VH: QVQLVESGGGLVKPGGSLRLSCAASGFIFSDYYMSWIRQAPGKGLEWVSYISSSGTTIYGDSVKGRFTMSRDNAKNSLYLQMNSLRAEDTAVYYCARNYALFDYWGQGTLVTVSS VL: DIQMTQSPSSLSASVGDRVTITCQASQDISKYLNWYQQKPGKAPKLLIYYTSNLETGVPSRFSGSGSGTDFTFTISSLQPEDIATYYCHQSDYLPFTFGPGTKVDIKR
3.76e+06
